test_method_notes: Metabolic stability in human hepatocytes assessed as half life at 1 uM measured upto 30 mins
Format: ADME, cell-based, Hepatocyte
Exercise: for every item that follows, state its recorded half-life at 1 µM.
Answers are plain numbers, in min.

Could you report half-life at 1 µM for every entry in the following list?
1. CC(c1nc(-c2cc(NCc3ccc(C(=O)O)cc3)cc(C(F)(F)F)c2)no1)c1cccc2ccccc12 (stereo not drawn)
2. Cc1ccc(N)cc1C(=O)N[C@H](C)c1cccc2ccccc12
3. CC(c1nc(-c2cc(NCc3ccc(C(=O)O)s3)cc(C(F)(F)F)c2)no1)c1cccc2ccccc12 (stereo not drawn)

stdout:
[36.5, 45, 92.4]

----------
test_method_notes: Cytotoxicity against african green monkey Vero E6 cells incubated for 48 hrs
Assay type: toxicity, cell-based, Vero C1008
stated_conditions: chlorocebus sabaeus
measured_metric: CC50 at 48 h

Observe how each entry below is paired with its result.
compound=Cc1ccc(N)cc1C(=O)N[C@H](C)c1cccc2ccccc12 measured_metric="CC50 at 48 h" result="253 µM"
compound="Cc1ccc(-c2noc(C(C)c3ccc(-c4ccccc4)c(F)c3)n2)cc1NCc1ccc(C(=O)O)s1 (racemic)" measured_metric="CC50 at 48 h" result="124 µM"

From here, focus on the item given below.
stdin: Record request: CC50 at 48 h value, item CC(c1nc(-c2ccc(-c3ccc(C(=O)O)s3)cc2)no1)c1cccc2ccccc12 (stereo not drawn)
stdout: 170 µM

----------
assay_system: UniProt P0DTD1
test_method_notes: Binding affinity to SARS-CoV2 PLpro by biolayer interferometry analysis
measured_metric: pKd
Give bare numbers, as −log10 of the molar value.

molecule="CC(c1nc(-c2cc(NCc3ccc(C(=O)O)cc3)cc(C(F)(F)F)c2)no1)c1cccc2ccccc12 (stereo unspecified)" result_number=4.87
molecule="CC(c1nc(-c2ccc(-c3ccc(C(=O)O)s3)cc2)no1)c1cccc2ccccc12 (stereo unspecified)" result_number=4.87
molecule="CC(c1nc(-c2ccc(NCc3ccc(C(=O)O)s3)cc2)no1)c1cccc2ccccc12 (stereo unspecified)" result_number=4.87

Could you report pKd for every entry in the following list?
1. CC(c1nc(-c2cc(NCc3ccc(C(=O)O)s3)cc(C(F)(F)F)c2)no1)c1cccc2ccccc12 (stereo unspecified)
2. Cc1ccc(-c2noc(C(C)c3ccc(-c4ccccc4)c(F)c3)n2)cc1NCc1ccc(C(=O)O)s1 (racemic)

stdout:
4.87
4.87

stdin: Record request: pKd value, item Cc1ccc(-c2noc(C(C)c3ccc4c(c3)[nH]c3ccc(Cl)cc34)n2)cc1NCc1ccc(C(=O)O)s1 (stereo unspecified)
stdout: 4.87

----------
test_method_notes: MRT(0 to t) in BALB/c mouse at 50 mg/kg, po measured upto 48 hrs by LC-MS/MS analysis
Assay type: ADME, organism-based
stated_conditions: in vivo
measured_metric: MRT last at 48 h (h)
One number for each entry, in h.

compound="Cc1ccc(-c2noc(C(C)c3ccc(-c4ccccc4)c(F)c3)n2)cc1NCc1ccc(C(=O)O)s1 (racemic)" result_number=2.19

stdin: Record request: MRT last at 48 h value, item CC(c1nc(-c2ccc(-c3ccc(C(=O)O)s3)cc2)no1)c1cccc2ccccc12 (configuration not stated)
stdout: 8.05

----------
test_method_notes: Metabolic stability in mouse hepatocytes assessed as half life at 1 uM measured upto 30 mins
Assay type: ADME, cell-based, Hepatocyte
measured_metric: half-life at 1 µM (min)
Give bare numbers, in min.

Observe how each entry below is paired with its result.
compound="CC(c1nc(-c2cc(NCc3ccc(C(=O)O)s3)cc(C(F)(F)F)c2)no1)c1cccc2ccccc12 (stereo not drawn)" result_number=53.9
compound=Cc1ccc(N)cc1C(=O)N[C@H](C)c1cccc2ccccc12 result_number=7.6

From here, focus on the item given below.
stdin: Record request: half-life at 1 µM value, item CC(c1nc(-c2cc(NCc3ccc(C(=O)O)cc3)cc(C(F)(F)F)c2)no1)c1cccc2ccccc12 (stereo not drawn)
stdout: 16.7
